# measurement_target: 5HT7 receptors (Homo sapiens)
# measurement_description: Functional data (Kb), HitHunter cAMP enzyme fragment complementation assay with 5-HT as agonist
# Format: cell-based
# Parameters: expressed in transfected cells; G418 selection)
# conditions: cAMP assay, cells stably expressing human 5HT7 receptors, antagonist activity in the presence of EC70 5-HT; read-out: Kb (nM)^2
recorded_metric: Kb (nM)

[P] CCC1(CC)CC(CCN2CCN(c3ccccc3N3CCOCC3)CC2)NC1=O (stereo not drawn)
[Q] CCC1(CC)CC(CCN2CCN(c3ccc(Cl)cc3)CC2)NC1=O (stereo not drawn)
Could you point out whether the larger Kb belongs to P or to Q ? // respond with label for picked entry
Q

---

# measurement_target: 5HT7 receptors (Homo sapiens, UniProt P34969)
# Sequence (P34969 whole entry, the tested form may be a part): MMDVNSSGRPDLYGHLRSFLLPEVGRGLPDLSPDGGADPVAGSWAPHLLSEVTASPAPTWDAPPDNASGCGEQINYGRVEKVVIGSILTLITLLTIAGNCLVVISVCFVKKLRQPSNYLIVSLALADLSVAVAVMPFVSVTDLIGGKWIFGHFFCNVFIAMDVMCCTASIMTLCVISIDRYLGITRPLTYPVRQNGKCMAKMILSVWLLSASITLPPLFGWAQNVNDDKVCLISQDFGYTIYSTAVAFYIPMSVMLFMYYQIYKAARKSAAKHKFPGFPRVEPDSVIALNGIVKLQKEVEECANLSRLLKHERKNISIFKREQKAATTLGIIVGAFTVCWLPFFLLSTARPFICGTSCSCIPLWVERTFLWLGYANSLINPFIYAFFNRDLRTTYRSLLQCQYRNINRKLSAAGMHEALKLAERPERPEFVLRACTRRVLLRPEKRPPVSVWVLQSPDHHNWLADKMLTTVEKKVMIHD
# measurement_description: Radiolabeled binding (IC50 and Ki), [3H]LSD competition on membranes of cells expressing recombinant 5HT7 receptors
# Design: expressed in transfected cells
# conditions: Table 37, scaffold drawing 617
pKi: −log10 of the molar value.
recorded_metric: pKi

Item CS(=O)(=O)N1CCC2(CC1)C[C@H](CCN1CCN(c3cccc(Cl)c3)CC1)NC2=O [drawing 617 n=2 R3=3-Cl-Phenyl R7=MeSO2] : provide pKi
6.97

For the compound CC(=O)N1CCC2(CC1)C[C@H](CCN1CCN(c3cccc(Cl)c3)CC1)NC2=O [drawing 617 n=2 R3=3-Cl-Phenyl R7=Acetyl] , give its reported pKi.
7.20

Look up and state reported pKi for CC(=O)N1CCC2(CC1)C[C@H](CCN1CCN(c3ccc(F)cc3)CC1)NC2=O [drawing 617 n=2 R3=4-F-Phenyl R7=Acetyl]
7.12

State its pKi for this compound: CS(=O)(=O)N1CCC2(CC1)C[C@H](CCN1CCN(c3ccc(F)cc3)CC1)NC2=O [drawing 617 n=2 R3=4-F-Phenyl R7=MeSO2]
7.05

---

# measurement_target: 5HT7 receptors (Homo sapiens)
# measurement_description: Functional data (Kb), HitHunter cAMP enzyme fragment complementation assay with 5-HT as agonist
# Format: cell-based
# Design: expressed in transfected cells; G418 selection)
# conditions: Table 36, scaffold drawing 616; antagonist mode vs 5-HT; read-out: Kb
recorded_metric: Kb (µM)

As a guide, the following entries are already answered.
Answer with the recorded Kb for the molecule listed here: `O=C1N[C@H](CCN2CCN(c3ccc(F)cc3)CC2)CC12CC=CC2`
0.0462

# return recorded Kb for entry `O=C1N[C@H](CCN2CCN(c3cccc(Cl)c3)CC2)CC12CCCC2`
0.0484

Report Kb for `O=C1N[C@H](CCN2CCN(c3ccc(F)cc3)CC2)CC12CCCC2`
0.0526

[A] CCC1(CC)C[C@@H](CCN2CCN(c3ccc(C)cc3)CC2)NC1=O
[B] O=C1N[C@H](CCN2CCN(c3cccc(Cl)c3)CC2)CC12CC=CC2
Kindly compare A with B and tell me which has the lower Kb figure. Returns: label corresponding to the selected item.
B
(B: 0.0363 µM, A: 0.0581 µM)

---

# measurement_target: 5HT7 receptors (Homo sapiens, UniProt P34969)
# measurement_description: Radiolabeled binding (IC50 and Ki), [3H]LSD competition on membranes of cells expressing recombinant 5HT7 receptors
# Parameters: expressed in transfected cells
# conditions: Table 35, scaffold drawing 615
Where a name gives a salt, the structure may show the parent alone.
recorded_metric: Ki (nM)

Reference set, count: 5
// Input: CCC1(CC)C[C@H](CN2CCN(c3ccc(F)cc3)CC2)NC1=O [formate] . Output its Ki only.
243

Give the reported value of Ki for this record: `CCC1(CC)C[C@H](CN2CCN(c3cccc(Cl)c3)CC2)NC1=O`
1090

Indicate its recorded Ki; the molecule in question is CCC1(CC)C[C@H](CN2CCN(c3ccc(C)cc3)CC2)NC1=O [formate]
249

Specify measured Ki for CCC1(CC)C[C@H](CN2CCN(c3ccccn3)CC2)NC1=O [formate] .
669

Identify measured Ki associated with CCC1(CC)C[C@H](CN2CCN(c3ccccc3C(C)C)CC2)NC1=O [formate]
121

[1] CCC1(CC)C[C@H](CN2CCN(c3ccc(C)cc3N3CCOCC3)CC2)NC1=O [formate]
[2] CCC1(CC)C[C@H](CN2CCN(c3ccccc3)CC2)NC1=O [drawing 615 n=1 R1=Ethyl R2=Ethyl R3=Phenyl, formate]
[3] CCC1(CC)C[C@H](CCN2CCN(c3ccc(C)cc3)CC2)NC1=O
List these items ordered by Ki, big to small. Return value: ordered labels per request.
2, 1, 3

---

# measurement_target: 5HT7 receptors (Homo sapiens, UniProt P34969)
# measurement_description: Radiolabeled binding (IC50 and Ki), [3H]LSD competition on membranes of cells expressing recombinant 5HT7 receptors
# Parameters: expressed in transfected cells
# conditions: Table 36, scaffold drawing 616
recorded_metric: pKi
The quantity pKi is defined as the negative base-10 logarithm of the molar concentration.

Answer with reported pKi of `CCC1(CC)C[C@@H](CCN2CCN(c3ccc(C)cc3)CC2)NC1=O`
7.10

---

# measurement_target: 5HT7 receptors (Homo sapiens, UniProt P34969)
# measurement_description: Functional data (Kb), HitHunter cAMP enzyme fragment complementation assay with 5-HT as agonist
# Assay type: cell-based
# Design: expressed in transfected cells; G418 selection)
# conditions: Table 35, scaffold drawing 615; antagonist mode vs 5-HT; read-out: Kb
recorded_metric: Kb (nM)

Entry `CCC1(CC)C[C@H](CCN2CCN(c3ccccc3Cl)CC2)NC1=O` needs its Kb filled in; supply it.
109

Note down Kb recorded for `CCC1(CC)C[C@H](CCN2CCN(c3ccc(C(F)(F)F)cc3)CC2)NC1=O`
137

Specify Kb for `CCC1(CC)C[C@H](CCN2CCN(c3ccccc3C)CC2)NC1=O` and stop.
127

Give Kb for `CCC1(CC)C[C@H](CCN2CCN(c3ccc(C)cc3)CC2)NC1=O`
8.43

Provide measured Kb value, entry: `CCC1(CC)C[C@H](CCN2CCN(c3cccc(F)c3)CC2)NC1=O`
9.89

[I] CCC1(CC)C[C@H](CCN2CCN(c3ccc(C#N)cc3)CC2)NC1=O
[II] CCC1(CC)C[C@H](CCN2CCN(c3ccc(Cl)c(Cl)c3)CC2)NC1=O
Which item exceeds the other in Kb, I or II ? In your reply, give the label of the chosen option.
I
(I: 544 nM, II: 6.19 nM)

[I] CCC1(CC)C[C@H](CCN2CCN(c3cccc(C)c3)CC2)NC1=O
[II] CCC1(CC)C[C@H](CN2CCN(c3ccc(C)cc3N3CCOCC3)CC2)NC1=O [formate]
Please choose the item with the lower Kb value from this pair: I and II // respond with label for picked entry
I

---

# measurement_target: 5HT7 receptors (Homo sapiens, UniProt P34969)
# measurement_description: Radiolabeled binding (IC50 and Ki), [3H]LSD competition on membranes of cells expressing recombinant 5HT7 receptors
# Parameters: expressed in transfected cells
# conditions: Table 35, scaffold drawing 615; read-out: IC50
recorded_metric: IC50 (nM)

Answered cases to consult:
Under 5HT7 receptors (Homo sapiens, UniProt P34969): report IC50 of `CCC1(CC)C[C@H](CCN2CCN(c3ccc(F)cc3)CC2)NC1=O` .
12.3

Report IC50 under test system 5HT7 receptors (Homo sapiens, UniProt P34969) for `CCC1(CC)C[C@H](CCN2CCN(c3ccc(F)c(Cl)c3)CC2)NC1=O` .
8.7

[P] CCC1(CC)C[C@H](CCN2CCN(c3ccc(Cl)c(Cl)c3)CC2)NC1=O
[Q] CCC1(CC)C[C@H](CCN2CCN(c3cccc(Cl)c3)CC2)NC1=O
Min IC50? P | Q API: response body contains the label of the selected item.
Q
(Q: 9.9 nM, P: 82.8 nM)

---

# measurement_target: 5HT7 receptors (Homo sapiens, UniProt P34969)
# measurement_description: Functional data (Kb), HitHunter cAMP enzyme fragment complementation assay with 5-HT as agonist
# Type: cell-based
# Set-up: expressed in transfected cells; G418 selection)
# conditions: Table 37, scaffold drawing 617; antagonist mode vs 5-HT; read-out: Kb
recorded_metric: Kb (nM)

Worked set:
Please list Kb recorded for the molecule CS(=O)(=O)N1CCC2(CC1)C[C@H](CCN1CCN(c3ccc(F)cc3)CC1)NC2=O [drawing 617 n=2 R3=4-F-Phenyl R7=MeSO2]
30.7

// fetch Kb given entry CS(=O)(=O)N1CCC2(CC1)C[C@H](CCN1CCN(c3cccc(Cl)c3)CC1)NC2=O [drawing 617 n=2 R3=3-Cl-Phenyl R7=MeSO2]
13.5

[A] CC(=O)N1CCC2(CC1)C[C@H](CCN1CCN(c3ccc(F)cc3)CC1)NC2=O [drawing 617 n=2 R3=4-F-Phenyl R7=Acetyl]
[B] CS(=O)(=O)N1CCC2(CC1)C[C@H](CCCN1CCN(c3ccc(F)cc3)CC1)NC2=O [drawing 617 n=3 R3=4-F-Phenyl R7=MeSO2]
[C] CS(=O)(=O)N1CCC2(CC1)C[C@H](CCCN1CCN(c3cccc(Cl)c3)CC1)NC2=O [drawing 617 n=3 R3=3-Cl-Phenyl R7=MeSO2]
[D] CC(=O)N1CCC2(CC1)C[C@H](CCN1CCN(c3cccc(Cl)c3)CC1)NC2=O [drawing 617 n=2 R3=3-Cl-Phenyl R7=Acetyl]
Give the ascending ranking of the items by reported Kb. List the labels according to the requested ordering.
D, A, C, B
(D: 5.04 nM, A: 14.4 nM, C: 321 nM, B: 526 nM)
